protocol.notes: Induction of apoptosis in CHO-K1 cells assessed as viable cells at 60 uM after 48 hrs by Annexin V based flow cytometric analysis (reference value: 93.71%)
Type: cell-based, Cricetulus griseus
assay.setup: chinese hamster, read-out: Activity
Exercise: for every item that follows, state its recorded viability at 48 h, 60 µM.
Respond with the bare value in %.

Which viability at 48 h, 60 µM reading was recorded for the compound O=C(Cn1cc(CSc2nc3cc(OC(F)F)ccc3[nH]2)nn1)NC1CCCCC1 ?
86

How about C[n+]1ccc(-c2c3nc(c(-c4cc[n+](C)cc4)c4ccc([nH]4)c(-c4cc[n+](C)cc4)c4ccc([nH]4)c(-c4cc[n+](C)cc4)c4nc2C=C4)C=C3)cc1 ?
81.9

---

Exercise: for every item that follows, state its recorded Kd.
measured.target: Quadruplex DNA
protocol.notes: Binding affinity to c-Myc G-quadruplex DNA (unknown origin) assessed as dissociation constant incubated for 5 mins by UV- vis spectrophotometric analysis
Type: nucleic-acid assay
Respond with the bare value in µM.

Which Kd reading was recorded for the compound O=[N+]([O-])c1ccc(-n2cc(CSc3nc4cc(OC(F)F)ccc4[nH]3)nn2)cc1 ?
79.2

How about O=C(Cn1cc(CSc2nc3cc(OC(F)F)ccc3[nH]2)nn1)NC1CCCCC1 ?
113

---

Exercise: for every item that follows, state its recorded Kd.
measured.target: Quadruplex DNA
protocol.notes: Binding affinity to Tel Q G-quadruplex DNA (unknown origin) assessed as dissociation constant incubated for 5 mins by UV- vis spectrophotometric analysis
Type: nucleic-acid assay
Respond with the bare value in µM.

Notebook entry, Quadruplex DNA assay: Kd of O=[N+]([O-])c1ccc(-n2cc(CSc3nc4cc(OC(F)F)ccc4[nH]3)nn2)cc1 = ?
87.3

How about O=C(Cn1cc(CSc2nc3cc(OC(F)F)ccc3[nH]2)nn1)NC1CCCCC1 ?
72.3

---

protocol.notes: Induction of apoptosis in CHO-K1 cells assessed as viable cells at 65 uM after 48 hrs by Annexin V based flow cytometric analysis (reference value: 93.71%)
Format: cell-based, Cricetulus griseus
assay.setup: chinese hamster, read-out: Activity
quantity.name: viability at 48 h, 65 µM (%)
Respond with the bare value in %.

Which viability at 48 h, 65 µM reading was recorded for the compound O=C(Cn1cc(CSc2nc3cc(OC(F)F)ccc3[nH]2)nn1)NC1CCCCC1 ?
84.4

---

Exercise: for every item that follows, state its recorded IC50.
Test system: B16-F10
protocol.notes: Cytotoxicity against mouse B16-F10 cells assessed as reduction in cell viability measured after 72 hrs by MTT assay
Assay type: functional, cell-based
assay.setup: B16-F10, 72 h
Respond with the bare value in µM.

Which IC50 reading was recorded for the compound O=C(Cn1cc(CSc2nc3cc(OC(F)F)ccc3[nH]2)nn1)Nc1cccc(Cl)c1 ?
135

How about C[n+]1ccc(-c2c3nc(c(-c4cc[n+](C)cc4)c4ccc([nH]4)c(-c4cc[n+](C)cc4)c4ccc([nH]4)c(-c4cc[n+](C)cc4)c4nc2C=C4)C=C3)cc1 [TMPYP4] ?
77

How about O=[N+]([O-])c1ccc(-n2cc(CSc3nc4cc(OC(F)F)ccc4[nH]3)nn2)cc1 ?
203

How about Fc1ccc(-n2cc(CSc3nc4cc(OC(F)F)ccc4[nH]3)nn2)cc1F ?
56.8
